- System: UACC-257 melanoma
- Assay comment: NCI-60 one-dose screen, 48 h
- Cond: 10 µM unless noted
This is part of a sample that, as a whole, favours compounds with a hit. Of some 83,000 tested, about 20% had one in any assay. Calls of active or inactive are those of the source. The calls were made as follows: active = growth percent below 10; inactive = the rest.
The reply should be one of these categories: t for active, f for inactive

// below: answered molecules
[[record]]
molecule = "C=C1CCC2C3(C)COC(c4c(OC)cccc4OC)OC3CCC2(C)C1C/C=C1/C(=O)OCC1O (stereo not drawn)"
group_label = "f"

[[record]]
molecule = "CCOC(=O)CN1/C(=N/c2sc3c(c2C(=O)OCC)CCN(C(=O)OCC)C3)SC(=O)/C1=C\\C(=O)OC"
group_label = "f"


Request: Dear colleague, could you share the recorded outcome for CCN(CC)CCCC(C)Nc1c2ccc(Cl)cc2nc2cc(OC)c(OC)cc12 (stereo not drawn) when you have a moment?
Response: f

Request: Dear colleague, could you share the recorded outcome for "COc1cc(/C=C/c2cc(/C=C/c3ccc(O)c(OC)c3)n(C(N)=O)n2)ccc1O" when you have a moment?
Response: t

Request: Dear colleague, could you share the recorded outcome for "COc1ccc(-c2nc(-c3nc4cc(C)c(C)cc4[nH]3)cc3c2[nH]c2ccccc23)cc1" when you have a moment?
Response: f

Request: Dear colleague, could you share the recorded outcome for "CC[N+](CC)=c1cc2oc3cc(N(C)C)ccc3nc-2cc1C" when you have a moment?
Response: t

Request: Dear colleague, could you share the recorded outcome for "O=[N+]([O-])c1ccc(Sc2ncccn2)c([N+](=O)[O-])c1" when you have a moment?
Response: f

Request: Dear colleague, could you share the recorded outcome for CCOC(=O)C1CCNC(=O)C1=O (stereo not drawn) when you have a moment?
Response: f

Request: Dear colleague, could you share the recorded outcome for "N/C(=N\C(N)=N\c1nc2ccccc2s1)c1cccc(Br)c1" when you have a moment?
Response: f

Request: Dear colleague, could you share the recorded outcome for "Cn1c2ccc(Br)cc2c2c3c(c4c5ccccc5[nH]c4c21)C(=O)N(O)C3=O" when you have a moment?
Response: t

Request: Dear colleague, could you share the recorded outcome for "COc1cc([N+](=O)[O-])c2ncccc2c1O" when you have a moment?
Response: f

Request: Dear colleague, could you share the recorded outcome for "C[n+]1c(/C=C/c2c(O)ccc3ccccc23)ccc2ccccc21" when you have a moment?
Response: f

Request: Dear colleague, could you share the recorded outcome for "COc1cc(NC(N)=NCCC(C)(C)Oc2ccc(C(F)(F)F)cc2)ncc1C#N" when you have a moment?
Response: t

Request: Dear colleague, could you share the recorded outcome for CCO/C=N/C1=C(C#N)C(c2ccc(Cl)cc2)c2c(c3ccc(C)cc3[nH]c2=O)O1 (stereo not drawn) when you have a moment?
Response: f

Request: Dear colleague, could you share the recorded outcome for O=c1[nH]c2ccc(Br)cc2c2c1C(c1ccc(Cl)cc1)c1c(ncn3nc(-c4ccco4)nc13)O2 (stereo not drawn) when you have a moment?
Response: f

Request: Dear colleague, could you share the recorded outcome for "Cc1ccc2nc(-c3cc4c([nH]c5ccccc54)c(-c4ccc(F)c(F)c4)n3)[nH]c2c1" when you have a moment?
Response: f

Request: Dear colleague, could you share the recorded outcome for "Cc1ccc2ccccc2c1C[n+]1ccccc1" when you have a moment?
Response: f

Request: Dear colleague, could you share the recorded outcome for "COc1cc(Nc2nc(N[C@H]3CCCC[C@@H]3N)nc3cc[nH]c(=O)c23)cc(OC)c1" when you have a moment?
Response: t

Request: Dear colleague, could you share the recorded outcome for "COc1cc2c(=O)n(C3CCCCCC3)c3c4cc[nH]c4ncc3c2cc1OC" when you have a moment?
Response: f

Request: Dear colleague, could you share the recorded outcome for "O=[N+]([O-])c1ccc(-c2cn(-c3ccccc3)c(-c3ccccc3)n2)cc1" when you have a moment?
Response: t

Request: Dear colleague, could you share the recorded outcome for O=C1C2(c3ccccc3)C(c3ccccc3)=C(c3ccccc3)C1(c1ccccc1)C1CC=CC12 (stereo not drawn) when you have a moment?
Response: f

Request: Dear colleague, could you share the recorded outcome for NC1=C(/C(N)=N/O)C(c2ccccc2)c2ccc3ccccc3c2O1 (stereo not drawn) when you have a moment?
Response: f

Request: Dear colleague, could you share the recorded outcome for "CCOC(=O)c1cc(C(=O)c2cc(OC)c(OC)c(OC)c2)n2c1ccc1ccccc12" when you have a moment?
Response: f

====

- System: IGROV1 ovarian
- Assay comment: NCI-60 one-dose screen, 48 h (100 = growth as untreated, 0 = no growth, -100 = all killed)
- Cond: 10 µM unless noted
This is part of a sample that, as a whole, favours compounds with a hit. Of some 83,000 tested, about 20% had one in any assay.
# strict inequality: growth < 40% yields condition met, everything else yields condition not met

// below: answered compounds
[[record]]
compound = "CN1C(=O)N(C)C2C1NN=c1s/c(=C\\c3cccnc3)c(=O)n12 (stereo not given)"
group_label = "condition not met"

[[record]]
compound = "COc1ccc(-c2nc(SCCC(C)C)nc(Nc3ccc(F)c(Cl)c3)c2C#N)cc1"
group_label = "condition not met"

[[record]]
compound = "COc1ccc(-n2c(=O)sc3c(Cl)nc(C)nc32)c(OC)c1"
group_label = "condition met"

[[record]]
compound = "O=C1/C(=C/c2ccccc2)CN(C(=O)CCN2CCC(=NO)CC2)C/C1=C\\c1ccccc1"
group_label = "condition met"

[[record]]
compound = "Nc1cc2c([nH]c[n+]2CC#CCCl)c(SCC#CCCl)n1"
group_label = "condition met"

[[record]]
compound = "COc1ccc(/C(C#N)=C/c2cc(OC)c(OC)c(OC)c2)cc1"
group_label = "condition not met"

[[record]]
compound = "O=C(O)COc1ccc(-c2cssc2=S)cc1"
group_label = "condition not met"

[[record]]
compound = "CCCCCc1cc[n+](CC(=O)c2ccc([N+](=O)[O-])cc2)cc1"
group_label = "condition not met"


Request: Dear colleague, could you confirm whether growth of "Cc1ccc(Nc2nnc(-c3ccc(Cl)cc3)o2)c(C)c1" falls below 40%? Thanks.
Response: condition not met

Request: Dear colleague, could you confirm whether growth of "C=C(C)[C@@H]1CC[C@]2(C(=O)O)CC[C@]3(C)[C@H](CC[C@@H]4[C@@]5(C)C[C@@H](CC#Cc6ccc(C(F)(F)F)cc6)[C@H](O)C(C)(C)[C@@H]5CC[C@]43C)[C@@H]12" falls below 40%? Thanks.
Response: condition met

Request: Dear colleague, could you confirm whether growth of "Cc1ccc2nc(Cl)cc(=O)n2c1" falls below 40%? Thanks.
Response: condition not met

Request: Dear colleague, could you confirm whether growth of "CCc1ccc(-c2ccc(=O)n(-c3ccc(S(N)(=O)=O)cc3)n2)cc1" falls below 40%? Thanks.
Response: condition met

Request: Dear colleague, could you confirm whether growth of "O=[N+]([O-])c1ccc(-c2cn(-c3ccccc3)c(-c3ccccc3)n2)cc1" falls below 40%? Thanks.
Response: condition not met

====

- System: KM12 colon
- Assay comment: NCI-60 one-dose screen, 48 h
- Cond: 10 µM unless noted
This is part of a sample that, as a whole, favours compounds with a hit. Of some 83,000 tested, about 20% had one in any assay. The source made the active and inactive calls. The calls were made as follows: active = growth percent below 10; inactive = the rest.
The reply should be one of these categories: active, inactive

[[record]]
compound = "COc1ccc(NC(=O)c2cc(OC)c(OC)c(OC)c2)cc1O"
target_or_test_system = "KM12 colon"
group_label = "inactive"

[[record]]
compound = "COc1ccc(CN2CCc3c(Sc4ccccc4)nc(N)nc3C2=O)c(OC)c1"
target_or_test_system = "KM12 colon"
group_label = "inactive"


Kindly consider the entry below.
Request: Dear colleague, could you share the recorded outcome for "COc1ccc(-c2nc(/C=N/Nc3cc(C)nc4ccc(Br)cc34)c(C)o2)cc1" when you have a moment?
Response: active

====

- System: SW-620 colon
- Assay comment: NCI-60 one-dose screen, 48 h (100 = growth as untreated, 0 = no growth, -100 = all killed)
- Cond: 10 µM unless noted
About 83,000 compounds went through this panel and 20% of them were active in at least one assay; those are over-represented in the sample as a whole.
If the reported growth equals or exceeds 50%, assign 1. If not, assign -1.

// below: answered compounds
[[record]]
compound = "O=[N+]([O-])c1ccc(/C=C/C2(CCl)OCCO2)cc1"
target_or_test_system = "SW-620 colon"
group_label = 1

[[record]]
compound = "COc1ccc(NC(=O)c2c(Nc3ccc(OC)cc3OC)n[nH]c2N)c(OC)c1"
target_or_test_system = "SW-620 colon"
group_label = 1

[[record]]
compound = "COc1ccc(-c2ccc(-c3ccc(C(=N)N)s3)s2)cc1Cl"
target_or_test_system = "SW-620 colon"
group_label = -1

[[record]]
compound = "Cc1ccc(S(=O)(=O)NCCNc2nccc(-c3c(-c4ccc(O)cc4)nc4sccn34)n2)cc1"
target_or_test_system = "SW-620 colon"
group_label = 1

[[record]]
compound = "O=C(O)C1CCCCN1c1nc(Cl)nc(Cl)n1 (configuration not stated)"
target_or_test_system = "SW-620 colon"
group_label = 1

[[record]]
compound = "Cc1ccc(S(=O)(=O)NCCCNc2cc(-c3cn(C(C)(C)C)nc3-c3cccc(O)c3)ccn2)cc1"
target_or_test_system = "SW-620 colon"
group_label = -1


Request: Tell me whether growth is at least 50% here: "COc1ccc(-c2c(N)n[nH]c2-c2cc(OC)c3c(c2)OCCO3)cc1"
Response: -1
